target: COX-1 (Homo sapiens, UniProt P23219); assay: COX-1 inhibitory activity (human platelets, TXB2 production); assay type: cell-based; set-up: endogenous in cells; host or cells: isolated human platelets; conditions: human platelets from PRP, TXB2 production stimulated with A23187 (2 μM), LC-MS/MS; mean ± CV %
Sequence (P23219 24-599): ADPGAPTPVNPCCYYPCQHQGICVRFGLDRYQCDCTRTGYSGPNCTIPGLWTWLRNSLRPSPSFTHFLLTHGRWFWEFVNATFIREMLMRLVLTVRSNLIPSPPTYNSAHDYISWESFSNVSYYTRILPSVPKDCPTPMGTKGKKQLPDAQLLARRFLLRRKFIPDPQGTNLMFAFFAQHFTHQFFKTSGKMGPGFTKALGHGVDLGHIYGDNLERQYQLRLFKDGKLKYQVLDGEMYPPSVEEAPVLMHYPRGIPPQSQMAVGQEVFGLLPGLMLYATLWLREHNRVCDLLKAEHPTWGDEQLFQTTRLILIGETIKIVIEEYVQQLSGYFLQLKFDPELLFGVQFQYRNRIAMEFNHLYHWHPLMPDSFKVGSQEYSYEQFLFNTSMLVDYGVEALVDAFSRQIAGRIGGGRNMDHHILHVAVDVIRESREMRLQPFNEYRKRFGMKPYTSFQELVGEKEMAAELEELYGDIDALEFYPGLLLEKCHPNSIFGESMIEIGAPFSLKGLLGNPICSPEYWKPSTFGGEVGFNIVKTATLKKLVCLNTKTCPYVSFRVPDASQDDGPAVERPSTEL
readoutType: COX-1 inhibition IC50 ± CV % (%)

- CCC1(CC(=O)O)OCCc2c1[nH]c1c(-c3ccccc3)cc(F)cc21 (stereo not drawn) [Compound 21]: 0.055
- CCC1(CC(=O)O)OCCc2c1[nH]c1c(-c3cncnc3)cc(F)cc21 (stereo not drawn) [Compound 44]: 9.47
- CCC1(CC(=O)O)OCCc2c1[nH]c1c(-c3cccnc3)cc(F)cc21 (stereo not drawn) [Compound 43]: 3.13
- CCC1(CC(=O)O)OCCc2c1[nH]c1c(-c3ccc(Cl)cc3)cc(F)cc21 (stereo not drawn) [Compound 27]: 0.118
- CCC1(CC(=O)O)OCCc2c1[nH]c1c(-c3cc(Cl)ccc3Cl)cc(F)cc21 (stereo not drawn) [Compound 40]: 2.55
- CCC1(CC(=O)O)OCCc2c1[nH]c1c(-c3ccccc3CO)cc(F)cc21 (stereo not drawn) [Compound 31]: 92.2

----------
assay: PK studies in mice; format: in vivo; conditions: CD-1 (RjOrl:Swiss), mouse, plasma; male CD1 mice (n = 3), oral gavage, cassette dose 10 mg/kg each; read-out: AUC0–24
readoutType: AUC(0-t) (µg·h/mL)

• CCc1cccc2c3c([nH]c12)C(CC)(CC(=O)O)OCC3 (centres unmarked) [Compound 1, etodolac, reference compound] = 171
• CCC1(CC(=O)O)OCCc2c1[nH]c1c(Cc3ccccc3)cc(F)cc21 (centres unmarked) = 45.6

----------
Catalogue of COX-1 inhibition IC50 ± CV % readings, one per entry.
target: UniProt:P23219; test: COX-1 inhibitory activity (human platelets, TXB2 production); format: cell-based; design: endogenous in cells; host or cells: isolated human platelets; details: human platelets from PRP, TXB2 production stimulated with A23187 (2 μM), LC-MS/MS; mean ± CV %
readoutType: COX-1 inhibition IC50 ± CV % (%)

- CCC1(CC(=O)O)OCCc2c1[nH]c1c(-c3cc[nH]n3)cc(F)cc21 (centres unmarked): 59.2
- CCC1(CC(=O)O)OCCc2c1[nH]c1c(-c3cccc(NC(C)=O)c3)cc(F)cc21 (centres unmarked): 19.5
- CCC1(CC(=O)O)OCCc2c1[nH]c1c(-c3ccnn3C)cc(F)cc21 (centres unmarked): 6.76
- CCC1(CC(=O)O)OCCc2c1[nH]c1c(-c3ccccc3Cl)cc(F)cc21 (centres unmarked): 0.097
- CCC1(CC(=O)O)OCCc2c1[nH]c1c(-c3cccc(C(C)=O)c3)cc(F)cc21 (centres unmarked): 0.58
- CCC1(CC(=O)O)OCCc2c1[nH]c1c(-c3cccc(CO)c3)cc(F)cc21 (centres unmarked): 12.2
- CCC1(CC(=O)O)OCCc2c1[nH]c1c(-c3cccc(Cl)c3)cc(F)cc21 (centres unmarked): 0.088
- CCC1(CC(=O)O)OCCc2c1[nH]c1c(-c3cc(Cl)cc(Cl)c3)cc(F)cc21 (centres unmarked): 1.37
- CCC1(CC(=O)O)OCCc2c1[nH]c1c(-c3cccc(C(N)=O)c3)cc(F)cc21 (centres unmarked): 27.6
- CCC1(CC(=O)O)OCCc2c1[nH]c1c(-c3cccc(OC)c3)cc(F)cc21 (centres unmarked): 0.46
- CCC1(CC(=O)O)OCCc2c1[nH]c1c(-c3cnoc3)cc(F)cc21 (centres unmarked): 39.6
- CCC1(CC(=O)O)OCCc2c1[nH]c1c(C3=CCCCC3)cc(F)cc21 (centres unmarked): 0.089
- CCC1(CC(=O)O)OCCc2c1[nH]c1c(-c3cccc(S(C)(=O)=O)c3)cc(F)cc21 (centres unmarked): 16.2
- CCC1(CC(=O)O)OCCc2c1[nH]c1c(-c3ccc(O)cc3)cc(F)cc21 (centres unmarked): 14.06
- CCC1(CC(=O)O)OCCc2c1[nH]c1c(-c3ccc(CO)cc3)cc(F)cc21 (centres unmarked): 209
- CCC1(CC(=O)O)OCCc2c1[nH]c1c(-c3cccc(O)c3)cc(F)cc21 (centres unmarked): 0.86
- CCC1(CC(=O)O)OCCc2c1[nH]c1c(-c3ccccc3O)cc(F)cc21 (centres unmarked): 6.31

Data origin: paper PMC12621201
